Listing: hERG current change (%, negative = inhibition) at 10uM of selected compounds
testedOn: human ether-à-go-go-related gene (hERG) potassium channel (human, UniProt Q12809)
Sequence (Q12809 whole entry, looked up): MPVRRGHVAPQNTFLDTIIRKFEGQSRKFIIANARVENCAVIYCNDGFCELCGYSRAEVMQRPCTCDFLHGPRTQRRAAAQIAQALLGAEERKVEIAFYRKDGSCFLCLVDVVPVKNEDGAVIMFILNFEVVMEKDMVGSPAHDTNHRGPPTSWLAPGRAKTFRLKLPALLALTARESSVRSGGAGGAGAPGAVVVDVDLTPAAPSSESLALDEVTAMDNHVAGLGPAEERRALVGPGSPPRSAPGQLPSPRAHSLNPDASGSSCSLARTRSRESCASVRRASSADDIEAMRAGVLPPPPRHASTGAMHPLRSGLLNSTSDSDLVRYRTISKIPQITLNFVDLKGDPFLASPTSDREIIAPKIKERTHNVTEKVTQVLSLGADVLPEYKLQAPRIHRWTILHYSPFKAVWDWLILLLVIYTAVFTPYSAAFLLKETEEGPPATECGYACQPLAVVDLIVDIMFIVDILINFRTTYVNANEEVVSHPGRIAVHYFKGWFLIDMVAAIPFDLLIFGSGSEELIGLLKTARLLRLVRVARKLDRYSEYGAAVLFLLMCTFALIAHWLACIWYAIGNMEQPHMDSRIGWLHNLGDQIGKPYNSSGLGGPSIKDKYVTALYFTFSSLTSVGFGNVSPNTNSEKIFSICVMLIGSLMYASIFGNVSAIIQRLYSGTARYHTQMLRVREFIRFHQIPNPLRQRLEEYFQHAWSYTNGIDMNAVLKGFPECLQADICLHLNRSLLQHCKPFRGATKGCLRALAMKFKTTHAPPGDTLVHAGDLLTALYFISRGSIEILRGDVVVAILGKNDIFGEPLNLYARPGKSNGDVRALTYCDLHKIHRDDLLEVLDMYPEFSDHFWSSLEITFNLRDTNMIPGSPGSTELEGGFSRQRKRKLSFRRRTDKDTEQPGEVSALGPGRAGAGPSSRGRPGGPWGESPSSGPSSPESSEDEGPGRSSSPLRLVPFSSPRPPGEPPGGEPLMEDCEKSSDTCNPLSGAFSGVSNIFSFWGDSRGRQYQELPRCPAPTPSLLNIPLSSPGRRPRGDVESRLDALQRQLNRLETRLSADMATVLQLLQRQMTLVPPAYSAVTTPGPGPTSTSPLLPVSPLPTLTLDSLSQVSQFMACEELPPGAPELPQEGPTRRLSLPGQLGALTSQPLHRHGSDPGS
measurementNotes: primary screen, population patch clamp on CHO cells stably expressing hERG; higher = less effect of the substance;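 note: peak tail current of the secondary pulse compared with the same well before compound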
About 14,000 (4.5%) of roughly 310,000 compounds showed an effect of 50% or more. Effects have a minus sign here. The full list was thinned out, with strong results kept by preference.
quantity: hERG current change (%, negative = inhibition) at 10uM (%)

[[record]]
compound = "CCOC(=O)c1ccc(-[n+]2c(-c3ccccc3)cc(-c3ccccc3)cc2-c2ccccc2)cc1.[O-][Cl+3]([O-])([O-])[O-]"
measurednumber = -77.9

[[record]]
compound = "CCCOC(=O)c1ccc(-[n+]2c(-c3ccccc3)cc(-c3ccccc3)cc2-c2ccccc2)cc1.[O-][Cl+3]([O-])([O-])[O-]"
measurednumber = -77.2

[[record]]
compound = "CCOC(=O)c1ccc(/[N+]([O-])=C/c2ccccc2)cc1"
measurednumber = 0.217

[[record]]
compound = "CCOc1ccc(C(C)(N)C(=O)O)cc1 (stereo not shown)"
measurednumber = -2.39


Source: paper PMC4336329
